Molecular target: PnuTSw mutant Y77A (Shewanella woodyi, UniProt B1KPL9, Y77A)
Assay: biochemical
observable: Kd (µM)
Report the value in µM with no unit label.

[Q] Returns the measured Kd for the input compound. Input: `Cc1ncc(C[n+]2csc(CCO)c2C)c(N)n1`
[A] 17

====

Target: PnuTSw mutant Y162F (Shewanella woodyi, UniProt B1KPL9, W162F)
Test: biochemical
observable: pKd
Note: pKd values are expressed as the negative base-10 logarithm of concentration in M.

[Q] Returns the measured pKd for the input molecule. Input: `Cc1ncc(C[n+]2csc(CCO)c2C)c(N)n1`
[A] 4.59

====

Target: PnuTSw mutant W199A (Shewanella woodyi, UniProt B1KPL9, W199A)
Sequence (B1KPL9 1-212 W199A): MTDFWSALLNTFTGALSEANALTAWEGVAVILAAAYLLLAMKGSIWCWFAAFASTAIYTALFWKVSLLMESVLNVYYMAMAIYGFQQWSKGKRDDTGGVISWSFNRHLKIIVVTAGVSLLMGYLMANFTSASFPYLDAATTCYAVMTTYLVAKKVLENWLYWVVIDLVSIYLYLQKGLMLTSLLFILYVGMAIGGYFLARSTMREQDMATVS
Assay: biochemical
observable: Kd (µM)
Report the value in µM with no unit label.

[Q] Returns the measured Kd for the input molecule. Input: `Cc1ncc(C[n+]2csc(CCO)c2C)c(N)n1`
[A] 12
